Values were extracted from patent US20230278995A1.

Biological target: human recombinant HDAC6 (Homo sapiens)
Sequence (Q9UBN7 whole entry): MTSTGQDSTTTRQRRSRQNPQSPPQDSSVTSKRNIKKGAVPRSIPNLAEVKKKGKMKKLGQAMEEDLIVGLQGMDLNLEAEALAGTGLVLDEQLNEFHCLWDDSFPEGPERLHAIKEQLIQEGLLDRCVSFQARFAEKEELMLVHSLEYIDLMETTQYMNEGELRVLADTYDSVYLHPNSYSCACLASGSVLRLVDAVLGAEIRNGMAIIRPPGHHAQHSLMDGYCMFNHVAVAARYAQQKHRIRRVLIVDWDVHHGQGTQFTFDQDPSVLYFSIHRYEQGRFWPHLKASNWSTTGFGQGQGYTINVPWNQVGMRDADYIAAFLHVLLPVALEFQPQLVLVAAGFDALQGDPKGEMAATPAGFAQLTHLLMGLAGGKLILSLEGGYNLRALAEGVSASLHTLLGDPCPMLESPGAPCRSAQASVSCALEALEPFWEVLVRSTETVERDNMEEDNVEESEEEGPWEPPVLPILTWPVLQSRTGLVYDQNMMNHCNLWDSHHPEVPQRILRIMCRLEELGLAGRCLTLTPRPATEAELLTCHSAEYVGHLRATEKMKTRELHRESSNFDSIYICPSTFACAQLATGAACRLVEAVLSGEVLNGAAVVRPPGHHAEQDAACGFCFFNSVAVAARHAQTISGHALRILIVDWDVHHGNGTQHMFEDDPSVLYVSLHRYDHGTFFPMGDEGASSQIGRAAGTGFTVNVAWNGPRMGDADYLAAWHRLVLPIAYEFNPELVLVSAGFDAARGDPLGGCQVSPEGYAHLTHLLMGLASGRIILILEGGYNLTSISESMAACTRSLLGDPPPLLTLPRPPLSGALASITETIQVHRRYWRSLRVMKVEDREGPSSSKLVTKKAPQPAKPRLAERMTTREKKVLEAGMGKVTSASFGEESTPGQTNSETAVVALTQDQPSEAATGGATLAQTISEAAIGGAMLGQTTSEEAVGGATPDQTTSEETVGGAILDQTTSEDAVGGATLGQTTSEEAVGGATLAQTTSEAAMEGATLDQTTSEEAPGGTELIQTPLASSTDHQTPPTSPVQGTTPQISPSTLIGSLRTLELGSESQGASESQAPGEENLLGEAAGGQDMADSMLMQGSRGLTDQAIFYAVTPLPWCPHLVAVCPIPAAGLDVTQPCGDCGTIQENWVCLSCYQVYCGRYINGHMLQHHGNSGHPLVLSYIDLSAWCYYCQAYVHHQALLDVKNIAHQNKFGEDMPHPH
Test: HDAC enzyme activity inhibition assay (HDAC Fluorimetric Drug Discovery Kit), HDAC6
Conditions: human recombinant HDAC6, same protocol as HDAC1

compound: CCCN1CC(N2CCC(F)(C(=O)N(Cc3ccc(-c4nnc(C(F)F)o4)cn3)c3cccc(F)c3)CC2)C1
IC50 / nM: 23.8
--
compound: O=C(C1CCC1)N1CC(F)(C(=O)N(Cc2ccc(-c3nnc(C(F)F)o3)cn2)c2cccc(F)c2)C1
IC50 / nM: 17.2
--
compound: CN1CCC(F)(C(=O)N(Cc2ccc(-c3nnc(C(F)F)o3)cn2)c2ccccc2)CC1
IC50 / nM: 74.7
--
compound: O=C(N(Cc1ccc(-c2nnc(C(F)F)o2)cn1)c1cccc(F)c1)C1(F)CN(C2CCOC2)C1 (stereo not drawn)
IC50 / nM: 58.5
--
compound: O=C(C1CCCCC1)N1CC(F)(C(=O)N(Cc2ccc(-c3nnc(C(F)F)o3)cn2)c2cccc(F)c2)C1
IC50 / nM: 24.2
--
compound: CCC(=O)N1CC(F)(C(=O)N(Cc2ccc(-c3nnc(C(F)F)o3)cc2F)c2ccccc2)C1
IC50 / nM: 85.9
--
compound: O=C(N(Cc1ccc(-c2nnc(C(F)F)o2)cn1)c1cccc(F)c1)C1(F)CN(C2CN(C3CCOC3)C2)C1 (stereo not drawn)
IC50 / nM: 23.2
--
compound: CN1CC(N2CC(F)(C(=O)N(Cc3ccc(-c4nnc(C(F)F)o4)cn3)c3ccccc3)C2)C1
IC50 / nM: 64.8
--
compound: O=C(C1CC1)N1CC(F)(C(=O)N(Cc2ccc(-c3nnc(C(F)F)o3)cn2)c2ccccc2)C1
IC50 / nM: 35.7
--
compound: CC(C)CC(=O)N1CC(F)(C(=O)N(Cc2ccc(-c3nnc(C(F)F)o3)cn2)c2cccc(F)c2)C1
IC50 / nM: 67.4
--
compound: CC(C)N1CCC(N2CC(F)(C(=O)N(Cc3ccc(-c4nnc(C(F)F)o4)cn3)c3cccc(F)c3)C2)CC1
IC50 / nM: 32.9
--
compound: CN1CC(N2CCC(F)(C(=O)N(Cc3ccc(-c4nnc(C(F)F)o4)cn3)c3cccc(F)c3)CC2)C1
IC50 / nM: 32.2
--
compound: CCN1CC(F)(C(=O)N(Cc2ccc(-c3nnc(C(F)F)o3)cc2F)c2ccccc2)C1
IC50 / nM: 80.1
--
compound: O=C(N(Cc1ccc(-c2nnc(C(F)F)o2)cc1F)c1ccccc1)C1(F)CCN(C2COC2)CC1
IC50 / nM: 108
--
compound: O=C(N(Cc1ccc(-c2nnc(C(F)F)o2)cn1)c1cccc(F)c1)C1(F)CN(CC2CCCCC2)C1
IC50 / nM: 67.4

====

Target: human recombinant HDAC1 (Homo sapiens, UniProt Q13547)
Sequence (Q13547 whole entry): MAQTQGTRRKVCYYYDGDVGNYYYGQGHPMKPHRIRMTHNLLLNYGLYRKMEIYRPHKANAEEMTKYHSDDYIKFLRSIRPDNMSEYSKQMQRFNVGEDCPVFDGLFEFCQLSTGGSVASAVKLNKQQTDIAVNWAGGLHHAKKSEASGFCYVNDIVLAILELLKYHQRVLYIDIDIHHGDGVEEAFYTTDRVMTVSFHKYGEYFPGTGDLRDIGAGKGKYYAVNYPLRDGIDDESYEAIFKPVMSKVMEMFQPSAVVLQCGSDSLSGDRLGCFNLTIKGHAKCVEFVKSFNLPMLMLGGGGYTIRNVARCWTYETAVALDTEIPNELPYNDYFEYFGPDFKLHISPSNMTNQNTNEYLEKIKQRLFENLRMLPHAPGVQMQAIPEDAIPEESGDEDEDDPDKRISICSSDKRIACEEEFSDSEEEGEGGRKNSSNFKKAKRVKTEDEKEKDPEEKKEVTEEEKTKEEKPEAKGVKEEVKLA
Experiment: HDAC enzyme activity inhibition assay (HDAC Fluorimetric Drug Discovery Kit), HDAC1
Conditions: human recombinant HDAC1, Fluor de Lys-SIRT1 substrate, 30° C. 60 minutes
Measured IC50, listed per entry.

structure.smiles.string: CC(C)CN1CC(N2CCC(F)(C(=O)N(Cc3ccc(-c4nnc(C(F)F)o4)cn3)c3cccc(F)c3)CC2)C1
comparison.symbol: =
IC50 [µM]: 44.6
//
structure.smiles.string: CN1CC(F)(C(=O)N(Cc2ccc(-c3nnc(C(F)(F)F)o3)cn2)c2cccc(F)c2)C1
comparison.symbol: >
IC50 [µM]: 50
//
structure.smiles.string: CC(=O)N1CC(F)(C(=O)N(Cc2ccc(-c3nnc(C(F)F)o3)cn2)c2ccccc2)C1
comparison.symbol: >
IC50 [µM]: 50
//
structure.smiles.string: CCN1CCC(N2CC(F)(C(=O)N(Cc3ccc(-c4nnc(C(F)F)o4)cn3)c3cccc(F)c3)C2)CC1
comparison.symbol: =
IC50 [µM]: 36.6
